Assay: pH and solubilizer effect on solubility
Assay type: physicochemical
Conditions: pH 4.0 buffer with 2 wt % SLS, 25 °C, pH 4, aqueous with cosolvent or surfactant or cyclodextrin, thermodynamic from solid, pH 4.0 buffer, with 2 wt % SLS, potassium salt
experimentalEndpoint: solubility at 24 h (µg/mL)

N#Cc1nn(-c2cc(Cl)c(Oc3n[nH]c(=O)c4ccccc34)c(Cl)c2)c(=O)[nH]c1=O :: 10

----------
Assay: Multiple-ascending dose trial of Compound 2 in healthy participants
Assay type: in vivo, human
Settings: human, plasma, oral; Day 14, 3 mg QD
experimentalEndpoint: Cmax (ng/mL)

N#Cc1nn(-c2cc(Cl)c(Oc3n[nH]c(=O)c4ccccc34)c(Cl)c2)c(=O)[nH]c1=O [Compound 2] :: 291
